System: turtle Thyroid Hormone Receptor, alpha (TRa), gene 101949057
Test: ATG_trTRa_XSP2: Attagene TRANS-FACTORIAL Multi-Species (XSP1) HepG2 Assay for turtle Thyroid Hormone Receptor, alpha (TRa) (AID 2283834);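 further: hits raise reporter mRNA over the DMSO baseline so AC50 marks activators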
Results filed as inconclusive are left out. Calls of active or inactive are those of the source. How the source made its calls: active means hit-call score of the fitted dose curve at least 0.9, where 1 is the maximum; inconclusive means response in the unintended direction; inactive means score below 0.9.
Outcomes: True (active), False (inactive)

INSERT INTO measurements (chemical_string, study_system, assigned_label) VALUES
  ('CC(C)(c1cc(Br)c(O)c(Br)c1)c1cc(Br)c(O)c(Br)c1', 'turtle Thyroid Hormone Receptor, alpha (TRa), gene 101949057', 'False'),
  ('CC1(C)NC(=O)N(c2ccc([N+](=O)[O-])c(C(F)(F)F)c2)C1=O', 'turtle Thyroid Hormone Receptor, alpha (TRa), gene 101949057', 'False'),
  ('O=c1c(-c2ccc(O)cc2)coc2cc(O)cc(O)c12', 'turtle Thyroid Hormone Receptor, alpha (TRa), gene 101949057', 'False'),
  ('Cc1c2ccccc2c(C)c2c1ccc1ccccc12', 'turtle Thyroid Hormone Receptor, alpha (TRa), gene 101949057', 'True'),
  ('CC/C(=C(/CC)c1ccc(O)cc1)c1ccc(O)cc1', 'turtle Thyroid Hormone Receptor, alpha (TRa), gene 101949057', 'False');

----------
Molecular target: human Dual Specificity Protein Phosphatase 3 (DUSP3), DUSP3 (gene 1845) (UniProt P51452)
Sequence (P51452 whole entry, looked up): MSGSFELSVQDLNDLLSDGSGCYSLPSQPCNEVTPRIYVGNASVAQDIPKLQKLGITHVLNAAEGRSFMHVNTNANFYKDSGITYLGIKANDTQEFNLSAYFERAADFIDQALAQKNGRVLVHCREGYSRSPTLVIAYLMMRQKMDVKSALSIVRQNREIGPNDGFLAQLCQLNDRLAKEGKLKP
Assay: NVS_ENZ_hDUSP3: NovaScreen (NVS) Enzymatic Assay for human Dual Specificity Protein Phosphatase 3 (DUSP3) (AID 2283152);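 further: phosphatase activity of recombinant human DUSP3 on a fluorogenic substrate without cells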
The source made the active and inactive calls. Rule for the calls: active = hit-call score of the fitted dose curve at least 0.9, where 1 is the maximum; inconclusive = response in the unintended direction; inactive = score below 0.9.
Outcomes: YES = active, NO = inactive

INSERT INTO results (compound, assigned_label) VALUES
  ('Cc1cc(F)ccc1-c1cc(N2CC[C@@H](O)[C@H]2CO)ncc1N(C)C(=O)C(C)(C)c1cc(C(F)(F)F)cc(C(F)(F)F)c1', 'YES'),
  ('O=C(Nc1ccc(Cl)cc1)Nc1ccc(Cl)c(Cl)c1', 'NO'),
  ('CCN(Cc1cccc(S(=O)(=O)O)c1)c1ccc(C(=C2C=CC(=[N+](CC)Cc3cccc(S(=O)(=O)O)c3)C=C2)c2ccccc2S(=O)(=O)[O-])cc1', 'YES'),
  ('CN1C(=O)N(c2ccccc2Br)Cc2cnc(Nc3ccc4c(c3)OCC(CO)O4)nc21 (stereo not given)', 'YES'),
  ('CCCCCCCCOC(=O)c1cc(O)c(O)c(O)c1', 'NO'),
  ('Cc1ccc2oc(CN(Cc3ccccc3)C(=O)Nc3c(F)cc(F)cc3F)c(-c3ccc(Cl)cc3)c2c1', 'YES'),
  ('O=C1CCC(C2CCCCC2)CC1', 'YES'),
  ('Cc1c2ccccc2c(C)c2c1ccc1ccccc12', 'NO'),
  ('CO[C@H]1/C=C/O[C@@]2(C)Oc3c(C)c(O)c4c(O)c(c(/C=N/N5CCN(C)CC5)c(O)c4c3C2=O)NC(=O)/C(C)=C\C=C\[C@H](C)[C@H](O)[C@@H](C)[C@@H](O)[C@@H](C)[C@H](OC(C)=O)[C@@H]1C', 'YES'),
  ('OC12N=C(c3ccccc3)SC1Cc1cc(Cl)ccc12 (stereo not given)', 'YES');

----------
Read-out: Protein phosphatase 2A (PPP2R4), PTPA (gene 5524)
Assay: LTEA_HepaRG_PPP2R4: Life Technologies and Expression Analysis (LTEA) Assay for Protein phosphatase 2A (PPP2R4) using HepaRG (AID 2283522)
Conditions: mRNA level, 48 h; actives raise or lower the signal
Active and inactive are the calls of the source. How the source made its calls: active means hit-call score of the fitted dose curve at least 0.9, where 1 is the maximum; inactive means score below 0.9.
assay.readout: outcome

INSERT INTO results (compound, meas_value) VALUES
  ('O=C(O)c1ccccc1C(=O)OCc1ccccc1', 'inactive'),
  ('OC12N=C(c3ccccc3)SC1Cc1cc(Cl)ccc12 (stereo not drawn)', 'inactive'),
  ('CN1C(=O)CC[C@H]1c1cccnc1', 'inactive');
